Please provide measured MIC for the entries that follow.
test system: intracellular M. tuberculosis in THP-1 cells; assay: microbe, parasite or virus in culture; assay type: cell-based; settings: Mycobacterium tuberculosis, H37RA, read-out: MIC, Macrophage Cells
The reply should contain only the number, in µg/mL.

Incoming: Recorded MIC for COc1c(N2C[C@@H]3CCCN[C@@H]3C2)c(F)cc2c(=O)c(C(=O)O)cn(C3CC3)c12 [Moxifloxacin] , please?
Outgoing: 0.33

Incoming: Cool, now CC(=O)NC[C@H]1CN(c2ccc(N3CCOCC3)c(F)c2)C(=O)O1 [Linezolid]
Outgoing: 0.37

Incoming: Consider next the compound NNC(=O)c1ccncc1 [Isoniazid, isonicotinohydrazide, reference compound] in the same way.
Outgoing: 0.012

Incoming: Another compound to check: CC[C@@H](CO)NCCN[C@@H](CC)CO [Ethambutol]
Outgoing: 1.26

Incoming: # repeat for CO[C@H]1/C=C/O[C@@]2(C)Oc3c(C)c(O)c4c(O)c(c(/C=N/N5CCN(C)CC5)c(O)c4c3C2=O)NC(=O)/C(C)=C\C=C\[C@H](C)C(O)[C@@H](C)[C@@H](O)[C@@H](C)[C@H](OC(C)=O)[C@@H]1C (stereo partly shown) [Rifampin]
Outgoing: 0.008

Incoming: Another compound to look at: CCNC(=O)Nc1nc2cc(-c3cnc(C(C)(C)O)nc3)c(F)c([C@H]3CCCO3)c2[nH]1 [Compound 23A]
Outgoing: 0.03
